biological target: human AMY1(a) receptor (CTR/RAMP1), transiently transfected in Cos 7 cells (human), P30988; assay: cell-based or functional assay
Sequence (P30988 25-474, chain 1 of 2): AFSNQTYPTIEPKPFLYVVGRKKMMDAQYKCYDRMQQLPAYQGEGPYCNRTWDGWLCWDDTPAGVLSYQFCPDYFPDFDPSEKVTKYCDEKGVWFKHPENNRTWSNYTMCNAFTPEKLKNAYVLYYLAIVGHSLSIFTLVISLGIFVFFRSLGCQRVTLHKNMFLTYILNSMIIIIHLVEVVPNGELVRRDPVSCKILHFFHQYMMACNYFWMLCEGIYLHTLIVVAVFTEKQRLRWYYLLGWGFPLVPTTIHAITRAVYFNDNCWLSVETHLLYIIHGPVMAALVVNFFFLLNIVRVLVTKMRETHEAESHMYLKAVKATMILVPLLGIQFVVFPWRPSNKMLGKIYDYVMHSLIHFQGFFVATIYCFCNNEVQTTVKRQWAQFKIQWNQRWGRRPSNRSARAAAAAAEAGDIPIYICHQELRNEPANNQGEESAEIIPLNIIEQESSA
Sequence (O60894 27-148, chain 2 of 2, further chain): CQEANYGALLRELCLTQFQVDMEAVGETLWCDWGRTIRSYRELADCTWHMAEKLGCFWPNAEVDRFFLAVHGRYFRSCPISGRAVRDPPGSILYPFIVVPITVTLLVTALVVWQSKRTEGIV
Where no end group is shown, it is not given here. The star is where a group is joined. Ethyl(2-palmitoyloxy) = CCCCCCCCCCCCCCCC(=O)OCC*
quantityName: antagonist potency pKB (cAMP assay, Cos 7)
Answers are plain numbers.

For orientation, consider the following solved cases.
{"binder": "VTHRLAGLLSRSGGVVC(Ethyl(2-palmitoyloxy))NNFVPTNVGSKAF-NH2 [K24C(S-Pam) CGRP8-37 A5]", "resultNumber": 8.75}
{"binder": "CVTHRLAGLLSRSGGVVKNNFVPTNVGSKAF-NH2 [CGRP7-37 B]", "resultNumber": 7.12}
{"binder": "C(Ethyl(2-palmitoyloxy))THRLAGLLSRSGGVVKNNFVPTNVGSKAF-NH2 [V8C(S-Pam) CGRP8-37 A4]", "resultNumber": 8.15}

Output measured antagonist potency pKB (cAMP assay, Cos 7) for this item: CVTHRLAGLLSRSGGVVKNNFVPTNVGSKAF (here or on the partner: Cys 7 (CGRP numbering; residue 1 of the entry) S-conjugated to 2-(palmitoyloxy)ethyl (S-Pam); C-terminal amide) [7C(S-Pam) CGRP7-37 B1]
8.66

The reported numbers originate from patent US20200353088A1.
